Experiment: A549 NSCLC cell proliferation inhibitors – ATP luminescence, human non-small cell lung line, primary screen (AID 371);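 note: compound exposure lasted 72 h before the ATP read; 0% = untreated cell signal and 100% = no luminescence left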
Details: at 10 µM
Screen size: about 3,300 compounds; about 280 (8.5%) were called active.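 Rule for the calls: active = mean growth inhibition over the two runs of 50% or more; inactive = mean growth inhibition under 50%.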 The sample holds actives, similar compounds and a random draw of the others, so the mix is not that of the screen.
The categories you may choose from are active, inactive

{"molecule": "CCCc1cc(=O)oc2c(CN3CCN(C)CC3)c(O)c(Cl)cc12", "answer.label": "inactive"}
{"molecule": "COC(=O)c1ccn(C(=O)c2ccc(Cl)cc2)n1", "answer.label": "inactive"}
{"molecule": "COc1ccc(CCn2c(=N)c(C(=O)NCc3ccco3)cc3c(=O)n4ccccc4nc32)cc1", "answer.label": "active"}

Exam item: Which outcome was assigned to COc1ccc(Nc2cc(C)nc3ccccc23)cc1 in this test?
Marked response: inactive

Exam item: Just curious, what result did Cc1cc(=O)oc(C)c1C(=O)NCC(C)NC(=O)c1c(C)cc(=O)oc1C (configuration not stated) get here?
Marked response: inactive

Exam item: What classification did O=C(Cc1ccccc1)Nc1cccc(-c2nnc(-c3ccco3)o2)c1 end up with in this test?
Marked response: inactive

Exam item: Would you mind telling me which call this test gave CCOC(=O)C1=C(C)NC(C)=C(C(=O)OC)C1c1cccc([N+](=O)[O-])c1 (configuration not stated) ?
Marked response: active

----------
Assay: A549 NSCLC cell proliferation inhibitors – ATP luminescence, human non-small cell lung line, primary screen (AID 371);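 note: compound exposure lasted 72 h before the ATP read; 0% = untreated cell signal and 100% = no luminescence left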
Details: at 10 µM
Hit rate of the full screen: of about 3,300 compounds, about 280 (8.5%) were called active.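 How the source made its calls: active means mean growth inhibition over the two runs of 50% or more; inactive means mean growth inhibition under 50%.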 This excerpt belongs to a sample that is enriched for actives.
In this exercise, the only acceptable responses are active, inactive

Recorded results for 2 compounds are shown here.
{"molecule.smiles": "Cc1nn(CC(=O)NCCN2CCOCC2)c(=O)c2ccccc12", "answer.label": "inactive"}
{"molecule.smiles": "CCCn1c(SCC#N)nc2c(c1=O)C1(CCCC1)Cc1ccccc1-2", "answer.label": "inactive"}

API: the following record is the query input.
Exam item: Tell me the recorded outcome of this test for COc1cccc2c1C(=O)c1c(O)c3c(c(O)c1C2=O)C[C@@](O)(C(=O)CO)C[C@@H]3O[C@H]1C[C@H](N)[C@H](O)[C@H](C)O1 .
Marked response: active

----------
Each entry below lists one item and its recorded growth inhibition value.
Test: A549 NSCLC cell proliferation inhibitors – ATP luminescence, human non-small cell lung line, primary screen (AID 371);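 note: compound exposure lasted 72 h before the ATP read; 0% = untreated cell signal and 100% = no luminescence left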
Settings: at 10 µM, hits give high values
The campaign covered roughly 3,300 compounds. About 280 (8.5%) were called active. This is one part of a sample in which actives are shown more often than they occur.
Value expressed in %; do not type the unit.

These recorded examples may help you get a feel for the data.
{"molecule.smiles": "COc1ccc(CNc2oc(COc3ccccc3Cl)nc2C#N)cc1", "growth inhibition, %": 34.1}
{"molecule.smiles": "COc1ccc(CCNc2oc(COc3ccccc3)nc2C#N)cc1", "growth inhibition, %": 31.8}

Turning now to a further molecule:
Exam item: Query (molecule): OCCNc1ncnc2c1c(-c1ccccc1)c(-c1ccccc1)n2Cc1ccco1 ; field requested: growth inhibition
Marked response: 53.2
